Target: KPC-2 (Klebsiella pneumoniae, UniProt Q9F663)
Construct: recombinant KPC-2 from pET28a (bla KPC-2 gene, NCBI NG_049253.1), expressed in E. coli BL21(DE3), Ni column purified
Sequence (Q9F663 25-293 limits assumed): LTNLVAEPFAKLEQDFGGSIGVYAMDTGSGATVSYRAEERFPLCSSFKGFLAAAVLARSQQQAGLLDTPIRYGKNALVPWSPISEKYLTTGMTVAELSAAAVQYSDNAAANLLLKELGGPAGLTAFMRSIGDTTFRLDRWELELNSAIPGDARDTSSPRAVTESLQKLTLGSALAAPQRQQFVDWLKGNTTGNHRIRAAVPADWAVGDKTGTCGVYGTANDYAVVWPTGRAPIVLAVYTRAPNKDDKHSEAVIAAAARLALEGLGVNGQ
Test: nitrocefin hydrolysis assay with purified KPC-2, absorbance at […] nm
measured-metric: pIC50
In textbook form, pIC50 equals minus log to base ten of the concentration in mol/L.

Asked: # query: pIC50 | item `C[C@H]1[C@H](C)CC[C@]2(C(=O)O)CC[C@]3(C)C(=CC[C@@H]4[C@@]5(C)C[C@@H](O)[C@H](O)C(C)(C)[C@@H]5CC[C@]43C)[C@H]12` | system: KPC-2 (Klebsiella pneumoniae, UniProt Q9F663)
Given back: 5.30
